- measurement-protocol: Nuclear factor erythroid 2-related factor 2/antioxidant responsive element (Nrf2/ARE) small molecule agonists: qHTS cell viability counter screen in human keratinocytes (AID 1919968); note: nearly all actives have a fitted effect of over 55% in size
- test-parameters: KeratinoSens HaCaT ARE cells viability, CellTiter-Fluor, 24 h; series mostly up to 92.4 µM
Inconclusive results are not listed. Active and inactive are the calls of the source. Calls come from the whole dose curve; as a rule, active = well fitted cell-killing curve with a large enough effect in the repeat runs; inconclusive = weak or mixed curves, or effect the other way; inactive = flat fitted curve, though single readings scatter.
Classes used: 1 (yes) (active), 0 (no) (inactive)

| molecule | label |
| --- | --- |
| Nc1ccc2cc3ccccc3cc2c1 | 0 (no) |
| CCCC(C)CO (stereo not drawn) | 0 (no) |
| OCc1ccccc1 | 0 (no) |
| CC(C)(C)NCC(O)COc1ccccc1OCC1CCCO1 (stereo not drawn) | 0 (no) |
| CCCCOC(=O)[C@H](C)O | 0 (no) |
| Cc1ccccc1C(N)=O | 0 (no) |
| CC(=O)N[C@H]1[C@H]([C@H](O)[C@H](O)CO)OC(C(=O)O)=C[C@@H]1N=C(N)N | 0 (no) |
| CCCCCCCCCCCCC(=O)O | 0 (no) |
| O=[N+]([O-])c1ccc(/C=C/c2ccc([N+](=O)[O-])cc2S(=O)(=O)O)c(S(=O)(=O)O)c1 | 0 (no) |
| O=C[C@H](O)[C@@H](O)[C@H](O)[C@H](O)CO | 0 (no) |
| O=C1c2c(O)ccc(Nc3ccc(CCO)cc3)c2C(=O)c2c([N+](=O)[O-])ccc(O)c21 | 0 (no) |
| COc1cccc2c1C(=O)c1c(O)c3c(c(O)c1C2=O)C[C@@](O)(C(=O)CO)C[C@@H]3O[C@H]1C[C@H](N)[C@H](O)[C@H](C)O1 | 1 (yes) |
| O=C(c1ccccc1)c1ccccc1O | 0 (no) |
| FC(F)(F)c1ccccc1Cl | 0 (no) |
| CCCCC(CC)COC(=O)CC(C(=O)OCC(CC)CCCC)S(=O)(=O)O (stereo not drawn) | 1 (yes) |
| COc1ccc2cc(C=O)ccc2c1 | 0 (no) |
| Nc1nc(=O)n([C@@H]2O[C@H](CO)[C@@H](O)[C@@H]2F)cc1I | 0 (no) |
| Cc1ccc(C)o1 | 0 (no) |
| C#CC(C)(O)CC(C)C (stereo not drawn) | 0 (no) |
| ClC(c1ccccc1)(c1ccccc1)c1ccccc1 | 0 (no) |
| NCC1(Cc2noc(=O)[nH]2)CCCCC1 | 0 (no) |
| CC(=O)OC/C=C/c1ccccc1 | 0 (no) |
| O=Nc1ccc(NO)cc1 | 0 (no) |
| Clc1ccc2c(c1)Nc1ccccc1S2 | 0 (no) |
| COCc1ccc(COC)cc1 | 0 (no) |
| O=Cc1ccc(F)cc1 | 0 (no) |
| Cc1ccc(C(C)(C)C)cc1 | 0 (no) |
| CC(C)OC(=O)C(O)(CC(=O)O)CC(=O)O | 0 (no) |

====

- assay-target: D(2) dopamine receptor (Homo sapiens)
- measurement-protocol: Dopamine D2 receptor (DRD2) small molecule antagonists, cell-based qHTS assay (AID 1963595); note: % is set by controls: 0 for no effect and ±100 for the full control effect
- test-parameters: HEK293-DRD2 cAMP HTRF antagonist mode; series mostly up to 92.4 µM
Results filed as inconclusive are left out. The source made the active and inactive calls. The call rests on the fitted dose curve; in most records, active means well fitted inhibition curve with a large enough effect in the signal ratio in the repeat runs, with a control signal flat; inconclusive means weak or mixed curves, or effect the other way; inactive means flat fitted curve, though single readings scatter; the % refers to the signal ratio.
measure: activity change, negative = inhibition

| compound | test-value |
| --- | --- |
| c1cc(C(c2ccc(OCC3CO3)cc2)C(c2ccc(OCC3CO3)cc2)c2ccc(OCC3CO3)cc2)ccc1OCC1CO1 (configuration not stated) | inactive |
| NCCNCCNCCNCCN | inactive |
| CC(C)c1ccc2c(C(C)C)cc(C(C)C)c(S(=O)(=O)O)c2c1 | inactive |
| CC(C)c1ccc(S(=O)(=O)O)cc1 | inactive |
| Cc1ccc(S(=O)(=O)O)c(C)c1 | inactive |
| CCc1occc(=O)c1O | inactive |
| CCN(C=O)CC | inactive |

====

- assay-target: D(2) dopamine receptor (Homo sapiens)
- measurement-protocol: Dopamine D2 receptor (DRD2) small molecule agonists, cell-based qHTS assay (AID 1963594); note: % is set by controls: 0 for no effect and ±100 for the full control effect; nearly all actives have a fitted effect of over 35% in size
- test-parameters: HEK293-DRD2 cAMP HTRF, agonist mode, 30 min; series mostly up to 92.4 µM
Records with an inconclusive call do not appear. Active and inactive are the calls of the source. Calls follow the shape of the full dose curve.

| compound | activation |
| --- | --- |
| CCCCCCS | inactive |
| CC(O)Cn1cnc2c1c(=O)n(C)c(=O)n2C (stereo not given) | inactive |
| Nc1c(NC/C=C\COc2cc(CN3CCCCC3)ccn2)c(=O)c1=O | -7.29% [at 19 µM] (inactive) |
| CC(C)CC(C)(N)C#N (stereo not given) | inactive |
| CCCCSCCCC | inactive |

====

- measurement-protocol: p53 small molecule agonists, cell-based qHTS assay with rat liver microsomes: qHTS cell viability counter screen (AID 1963580); note: % is set by controls: 0 for no effect and ±100 for the full control effect; nearly all actives have a fitted effect of over 45% in size
- test-parameters: p53RE-bla HCT-116 + rat microsomes, ATP viability, 16 h; series mostly up to 66 µM
Results filed as inconclusive are left out. Calls of active or inactive are those of the source. The call rests on the fitted dose curve.
measure: activity change, negative = cytotoxicity

| compound | measure | test-value |
| --- | --- | --- |
| O=S(=O)(O)c1ccc2c(N=Nc3ccc(S(=O)(=O)O)c4ccccc34)c(O)c(S(=O)(=O)O)cc2c1 | activity change, negative = cytotoxicity | -3.24% [at 5.99 µM] (inactive) |
| CCCC(=O)CC | activity change, negative = cytotoxicity | inactive |
| CCC(=O)O[C@@H]1C[C@H]2CC[C@]1(C)C2(C)C | activity change, negative = cytotoxicity | inactive |
| CNCCCC12CCC(c3ccccc31)c1ccccc12 | activity change, negative = cytotoxicity | inactive |
| Fc1c(F)c(F)c(Br)c(F)c1F | activity change, negative = cytotoxicity | inactive |
| CCC(C(=O)NC(N)=O)c1ccccc1 (stereo not given) | activity change, negative = cytotoxicity | inactive |
| CCN1CCc2nc(N)oc2CC1 | activity change, negative = cytotoxicity | inactive |
| COCCCOc1ccnc(CS(=O)c2nc3ccccc3[nH]2)c1C (stereo not given) | activity change, negative = cytotoxicity | inactive |
| CC[C@H](C)[C@H](N)C(=O)O | activity change, negative = cytotoxicity | inactive |
| CC(C)(C)CC(C)(C)c1ccc(OCCOCC[N+](C)(C)Cc2ccccc2)cc1 | activity change, negative = cytotoxicity | inactive |
| CN(C)c1ccc(Cc2ccc(N(C)C)cc2)cc1 | activity change, negative = cytotoxicity | inactive |
| Cc1ccc(C(=O)C(=O)O)cc1C | activity change, negative = cytotoxicity | inactive |
| COc1cc(/C=C/C(N)=O)cc(OC)c1OC | activity change, negative = cytotoxicity | inactive |
| CCCCOC(=O)C(=O)OCCCC | activity change, negative = cytotoxicity | inactive |
| O=C(O)/C=C/c1ccc(Cn2ccnc2)cc1 | activity change, negative = cytotoxicity | inactive |
| CC(C)CCCCCOC(=O)CS | activity change, negative = cytotoxicity | inactive |
| OCCc1ccccn1 | activity change, negative = cytotoxicity | inactive |
| CCCCCCCCCCCC(=O)N(C)CC(=O)O | activity change, negative = cytotoxicity | inactive |
| O=C(O)CNc1ccccc1 | activity change, negative = cytotoxicity | inactive |
| CC(C)NC(=O)c1ccccc1N | activity change, negative = cytotoxicity | inactive |
| CC(=O)N1C[C@H](O)C[C@H]1C(=O)O | activity change, negative = cytotoxicity | inactive |
| CCCCC(C)C(=O)O (stereo not given) | activity change, negative = cytotoxicity | inactive |
| Nc1nc(=O)n([C@@H]2O[C@H](CO)[C@@H](O)[C@@H]2F)cc1I | activity change, negative = cytotoxicity | inactive |
| Cc1oc(C)c(C(=O)Nc2ccccc2)c1C | activity change, negative = cytotoxicity | inactive |
| CCOCCOCC | activity change, negative = cytotoxicity | inactive |
| CCC(=O)OC/C=C(\C)CCC=C(C)C | activity change, negative = cytotoxicity | inactive |
| c1ccc2ncccc2c1 | activity change, negative = cytotoxicity | inactive |
| Cc1ccc(Nc2ccc(O)c3c2C(=O)c2ccccc2C3=O)cc1 | activity change, negative = cytotoxicity | inactive |
| CC(C)=O | activity change, negative = cytotoxicity | inactive |
| O=C(O)c1ccc(O)cc1O | activity change, negative = cytotoxicity | inactive |

====

- measurement-protocol: Nuclear factor erythroid 2-related factor 2/antioxidant responsive element (Nrf2/ARE) small molecule agonists: luciferase reporter gene qHTS assay in human keratinocytes (AID 1919969); note: nearly all actives have a fitted effect of over 35% in size
- test-parameters: KeratinoSens HaCaT ARE-luciferase, luminescence, 24 h; series mostly up to 92.4 µM
Inconclusive results are not listed. Calls of active or inactive are those of the source. The call rests on the fitted dose curve.
Outcome codes: yes (1) for active, no (0) for inactive

| compound | label |
| --- | --- |
| CC(C)(C)NCC(O)COc1ccccc1OCC1CCCO1 (configuration not stated) | no (0) |
| CC(CCO)CCc1ccccc1 (configuration not stated) | no (0) |
| Cc1occc1SSc1ccoc1C | yes (1) |
| Cc1ccccc1C(N)=O | no (0) |
| Oc1ccc(OCc2ccccc2)cc1 | yes (1) |
| Nc1cc([N+](=O)[O-])ccc1O | no (0) |
| CCN(CC#N)c1cccc(C)c1 | no (0) |
| N#CC1(c2ccc(F)cc2)CCC(=O)CC1 | no (0) |
| Cc1ccccc1C | no (0) |
| C1CCCCC1 | no (0) |
| CC1CC(OC(=O)c2ccccc2O)CC(C)(C)C1 (configuration not stated) | yes (1) |
| CC12CCC(C(=O)C1=O)C2(C)C (configuration not stated) | no (0) |
| C=C1CC/C=C(\C)CC[C@@H]2[C@@H]1CC2(C)C | no (0) |
| CC(C)(C)CC(C)(C)c1ccc(O)c(-n2nc3ccccc3n2)c1 | no (0) |
| O=C1OC(CN2CCOCC2)CN1/N=C/c1ccc([N+](=O)[O-])o1 (configuration not stated) | no (0) |
| CO[Si](CCCNCCNCCN)(OC)OC | no (0) |
| CCCCOC(=O)C(C)OC(=O)CCC (configuration not stated) | no (0) |
| C=C(C)C(=O)NCCCN(C)C | no (0) |
| Nc1cc(C(Cl)=C(Cl)Cl)c(S(N)(=O)=O)cc1S(N)(=O)=O | no (0) |
| C[N+]1([O-])CCOCC1 | no (0) |
| O=C(O)CCCCCCCCCCCC(=O)O | no (0) |
| CCOC(=O)OC(=O)OCC | no (0) |
| COc1ccc(OC)c(C(O)CNC(=O)CN)c1 (configuration not stated) | no (0) |
| CSCCC=O | no (0) |
| O=C(O)C[C@H](NC(=O)OCc1ccccc1)C(=O)O | no (0) |
| O=S(=O)(O)CO | no (0) |
| c1ccc(CNCc2ccccc2)cc1 | no (0) |
| C=C(C)[C@H]1CC=C(C)C(=O)C1 | no (0) |
| CCCCCCCOC(C)=O | no (0) |
| CN1CCCC1 | no (0) |
| CCO[Si](C)(OCC)OCC | no (0) |
| CCNc1cc(O)ccc1C | no (0) |
